# TESTED_TARGET: Sodium channel protein type 9 subunit alpha (Homo sapiens) (UniProt Q15858)
# Sequence (Q15858 whole entry, looked up): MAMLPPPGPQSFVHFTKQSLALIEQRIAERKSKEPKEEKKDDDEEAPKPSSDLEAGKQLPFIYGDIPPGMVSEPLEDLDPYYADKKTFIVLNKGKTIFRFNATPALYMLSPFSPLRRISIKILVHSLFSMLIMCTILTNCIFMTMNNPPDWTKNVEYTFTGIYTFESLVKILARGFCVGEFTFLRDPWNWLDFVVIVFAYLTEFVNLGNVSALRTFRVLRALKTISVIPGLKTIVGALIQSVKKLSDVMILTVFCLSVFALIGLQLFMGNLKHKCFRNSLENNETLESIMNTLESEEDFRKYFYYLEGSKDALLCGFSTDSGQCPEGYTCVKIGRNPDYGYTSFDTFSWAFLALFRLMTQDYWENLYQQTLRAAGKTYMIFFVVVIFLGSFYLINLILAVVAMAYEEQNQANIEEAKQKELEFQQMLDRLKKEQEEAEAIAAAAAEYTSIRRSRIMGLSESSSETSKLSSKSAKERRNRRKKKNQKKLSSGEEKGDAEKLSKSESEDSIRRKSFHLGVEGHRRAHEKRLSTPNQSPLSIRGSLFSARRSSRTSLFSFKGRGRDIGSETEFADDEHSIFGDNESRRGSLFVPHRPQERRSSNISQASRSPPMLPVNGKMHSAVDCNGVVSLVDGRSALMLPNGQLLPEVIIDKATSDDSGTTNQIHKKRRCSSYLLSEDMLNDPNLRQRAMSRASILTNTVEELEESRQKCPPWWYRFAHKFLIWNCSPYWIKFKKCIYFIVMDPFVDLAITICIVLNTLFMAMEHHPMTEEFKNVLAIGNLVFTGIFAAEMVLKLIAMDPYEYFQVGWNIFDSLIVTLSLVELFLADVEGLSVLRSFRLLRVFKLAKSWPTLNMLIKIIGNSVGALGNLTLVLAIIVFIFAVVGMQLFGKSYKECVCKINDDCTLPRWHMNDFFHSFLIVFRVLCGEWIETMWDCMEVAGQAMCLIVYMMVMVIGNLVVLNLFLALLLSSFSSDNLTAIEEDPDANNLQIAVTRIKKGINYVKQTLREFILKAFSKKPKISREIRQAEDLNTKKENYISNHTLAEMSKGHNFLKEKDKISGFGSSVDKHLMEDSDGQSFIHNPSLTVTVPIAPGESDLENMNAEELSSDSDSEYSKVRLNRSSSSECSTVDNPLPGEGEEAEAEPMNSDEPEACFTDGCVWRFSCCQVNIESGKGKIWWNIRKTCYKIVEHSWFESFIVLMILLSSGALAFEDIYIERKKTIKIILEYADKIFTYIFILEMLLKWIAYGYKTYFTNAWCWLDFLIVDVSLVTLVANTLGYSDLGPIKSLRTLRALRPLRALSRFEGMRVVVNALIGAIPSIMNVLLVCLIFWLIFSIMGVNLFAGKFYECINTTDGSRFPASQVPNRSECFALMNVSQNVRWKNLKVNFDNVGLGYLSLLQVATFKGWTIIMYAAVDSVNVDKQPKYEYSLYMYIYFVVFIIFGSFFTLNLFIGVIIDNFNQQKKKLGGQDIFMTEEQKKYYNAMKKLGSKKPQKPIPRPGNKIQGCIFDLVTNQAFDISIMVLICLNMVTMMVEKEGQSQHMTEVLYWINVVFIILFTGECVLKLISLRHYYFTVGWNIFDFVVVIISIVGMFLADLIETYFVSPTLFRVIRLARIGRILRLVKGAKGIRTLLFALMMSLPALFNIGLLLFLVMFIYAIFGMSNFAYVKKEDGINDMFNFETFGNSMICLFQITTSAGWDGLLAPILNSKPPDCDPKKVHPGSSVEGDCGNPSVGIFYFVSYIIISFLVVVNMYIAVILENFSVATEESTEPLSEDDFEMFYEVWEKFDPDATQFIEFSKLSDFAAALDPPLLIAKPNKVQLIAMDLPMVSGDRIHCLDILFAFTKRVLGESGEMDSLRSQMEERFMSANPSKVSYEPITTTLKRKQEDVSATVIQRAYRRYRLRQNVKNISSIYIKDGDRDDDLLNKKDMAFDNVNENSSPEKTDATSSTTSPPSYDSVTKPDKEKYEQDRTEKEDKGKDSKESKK
# PROCEDURE_SUMMARY: Inhibition of Nav1.7 (unknown origin) expressed in HEK293 cells by automated patch clamp assay
# Assay type: cell-based
So basically: INH at 0.05 µM or higher? That is Fulfilled. Lower than 0.05 µM? That is Not fulfilled.

LINE_NOTATION | CLASS_ASSIGNMENT
Cn1nccc1-c1cc(Cl)ccc1-c1cn(C)c2cc(S(=O)(=O)Nc3ncns3)ccc12 | Fulfilled
Cn1nccc1-c1cc(C(F)(F)F)ccc1-c1cn(C)c2cc(S(=O)(=O)Nc3ncns3)ccc12 | Fulfilled
Cn1cc(-c2ccc(C(F)(F)F)cc2-c2ccnn2C2CNC2)c2ccc(S(=O)(=O)Nc3ncns3)cc21 | Fulfilled
Cn1cc(-c2ccc(C(F)(F)F)cc2-c2ccn[nH]2)c2ccc(S(=O)(=O)Nc3ncns3)cc21 | Not fulfilled
Cn1cc(-c2ccc(C(F)(F)F)cc2C2=CCNCC2)c2ccc(S(=O)(=O)Nc3ncns3)cc21 | Not fulfilled

For this compound, is measured INH 0.05 µM or higher? Cn1cc(-c2cccc3ccccc23)c2ccc(S(=O)(=O)Nc3ncns3)cc21
Fulfilled

Try the compound Cn1cc(-c2cccc3c2CCNC3)c2ccc(S(=O)(=O)Nc3ncns3)cc21
Fulfilled
